The following molecules are shown together with reported IC50 ratio values.
# Tested on: Monoclonal antibody (mAb)
# measurement protocol: Binding affinity against human monoclonal antibody (mAb)-11E6

The cases that follow already have their IC50 ratio on record.
CC(=O)O[C@H]1CC[C@@]2(C)[C@H](CC[C@@H]3[C@@H]2C[C@@H](O)[C@]2(C)[C@@H](C4=CC(=O)OC4)CC[C@]32O)C1: 96
C[C@]12CC[C@H](O)C[C@H]1CC[C@@H]1[C@@H]2CC[C@]2(C)[C@@H](C3=CC(=O)OC3)[C@@H](O)C[C@]12O: 2100
C[C@H]1O[C@@H](O[C@H]2[C@@H](O)C[C@H](O[C@H]3CC[C@@]4(C)[C@H](CC[C@@H]5[C@@H]4CC[C@]4(C)[C@@H](C6=CC(=O)OC6)CC[C@]54O)C3)O[C@@H]2C)C[C@H](O)[C@@H]1O: 11
CO[C@H]1C(O)[C@H](O[C@H]2CC[C@@]3(C)[C@H](CC[C@@H]4[C@@H]3CC[C@]3(C)[C@@H](C5=CC(=O)OC5)CC[C@]43O)C2)O[C@@H](C)[C@@H]1O[C@@H]1O[C@H](CO[C@@H]2O[C@H](CO)[C@@H](O)[C@H](O)[C@H]2O)[C@@H](O)[C@H](O)[C@H]1O (stereo not given in full): 18
CC(=O)O[C@H]1C[C@H](O[C@H]2[C@@H](O)C[C@H](O[C@H]3[C@@H](O)C[C@H](O[C@H]4CC[C@@]5(C)[C@H](CC[C@@H]6[C@@H]5C[C@@H](O)[C@]5(C)[C@@H](C7=CC(=O)OC7)CC[C@]65O)C4)O[C@@H]3C)O[C@@H]2C)O[C@H](C)[C@H]1O[C@@H]1O[C@H](CO)[C@@H](O)[C@H](O)[C@H]1O: 1.6
C[C@]12CC[C@H](O)C[C@H]1CC[C@@H]1[C@@H]2CC[C@]2(C)[C@@H](c3ccc(=O)oc3)CC[C@]12O: 260
CC(=O)O[C@H]1C[C@]2(O)[C@@H]3CC[C@@H]4C[C@@H](O[C@@H]5C[C@H](O)[C@H](O[C@H]6C[C@H](O)[C@H](O[C@H]7C[C@H](O)[C@H](O)[C@@H](C)O7)[C@@H](C)O6)[C@@H](C)O5)CC[C@]4(C)[C@H]3CC[C@]2(C)[C@H]1C1=CC(=O)OC1: 400
C[C@]12CC[C@H]3[C@@H](CC[C@]4(O)C[C@@H](O)CC[C@]34C=O)[C@@]1(O)CC[C@@H]2C1=CC(=O)OC1: 66

### Prompt What value of IC50 ratio has been reported for the following molecule? C[C@H]1O[C@@H](O[C@H]2[C@@H](O)C[C@H](O[C@H]3[C@@H](O)C[C@H](O[C@H]4CC[C@@]5(C)[C@H](CC[C@@H]6[C@@H]5CC[C@]5(C)[C@@H](C7=CC(=O)OC7)CC[C@]65O)C4)O[C@@H]3C)O[C@@H]2C)C[C@H](O)[C@@H]1O [DIGITOXIN]
### Response 1.7

* * *

# System: Monoclonal antibody (mAb)
# measurement protocol: Binding affinity against murine monoclonal antibody (mAb)-40-50
Label criterion met when Relative Ki is strictly below 10; at or above that, label criterion not met.

Consider the worked cases shown below.
CO[C@H]1[C@H](O)[C@H](O[C@H]2CC[C@@]3(C)[C@H](CC[C@@H]4[C@@H]3CC[C@]3(C)[C@@H](C5=CC(=O)OC5)CC[C@]43O)C2)O[C@@H](C)[C@@H]1O: criterion met
C[C@]12CC[C@H](O)C[C@H]1CC[C@@H]1[C@@H]2C[C@@H](O)[C@]2(C)[C@@H](C3=CC(=O)OC3)CC[C@]12O: criterion met
CC(=O)O[C@H]1CC[C@@]2(C)[C@H](CC[C@@H]3[C@@H]2C[C@@H](O)[C@]2(C)[C@@H](C4=CC(=O)OC4)CC[C@]32O)C1: criterion met

# evaluate next
### Prompt Dear reviewer, please state whether C[C@H]1O[C@@H](O[C@H]2[C@@H](O)C[C@H](O[C@H]3[C@@H](O)C[C@@H](O[C@H]4CC[C@@]5(C)[C@H](CC[C@@H]6[C@@H]5C[C@@H](O)[C@]5(C)[C@@H](C7=CC(=O)OC7)[C@@H](O)C[C@]65O)C4)O[C@@H]3C)O[C@@H]2C)C[C@H](O)[C@@H]1O has Relative Ki strictly beneath 10.
### Response criterion not met
